The measured values listed here are drawn from ChEMBL document CHEMBL5331071.

# STUDY TARGET: Stimulator of interferon genes protein (Homo sapiens)
# MEASUREMENT NOTES: Activation of STING signalling pathway in human PBMC cells assessed as increase in IFN-beta level incubated for 4 hrs by ELISA method
# Format: cell-based
METRIC NAME: EC50 (nM)
Your answer should be a plain number; it is taken to be in nM.

Any idea what its EC50 is? The compound is CCn1nc(C)cc1C(=O)Nc1nc2cc(C(N)=O)cc(OC)c2n1NCCCC(=O)NCc1ccc(F)cc1
270

###

# STUDY TARGET: Stimulator of interferon genes protein (Homo sapiens, UniProt Q86WV6)
# Sequence (Q86WV6 whole entry): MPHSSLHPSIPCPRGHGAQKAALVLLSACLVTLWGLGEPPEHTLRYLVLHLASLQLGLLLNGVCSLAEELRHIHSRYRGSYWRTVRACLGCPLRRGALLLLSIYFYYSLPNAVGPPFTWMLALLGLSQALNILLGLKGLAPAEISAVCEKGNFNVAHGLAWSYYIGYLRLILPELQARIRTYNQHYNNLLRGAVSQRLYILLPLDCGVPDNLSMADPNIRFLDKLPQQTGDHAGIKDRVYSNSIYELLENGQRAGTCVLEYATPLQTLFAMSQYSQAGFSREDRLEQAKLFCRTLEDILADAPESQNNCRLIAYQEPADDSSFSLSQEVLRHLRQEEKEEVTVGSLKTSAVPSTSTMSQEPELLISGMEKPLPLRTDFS
# MEASUREMENT NOTES: Agonist activity at STING in human […] KO-STING cells incubated for 20 hrs by Quanti-luc reagent based assay
# Type: cell-based, THP1-Dual KO-STING
METRIC NAME: EC50

Recorded results for 3 compounds are shown here.
• CCn1nc(C)cc1C(=O)Nc1nc2cc(C(N)=O)cc(OC)c2n1C/C=C/CNc1ccc(C(N)=O)cc1[N+](=O)[O-] = > 100 µM
• CCn1nc(C)cc1C(=O)Nc1nc2cc(C(N)=O)cc(OC)c2n1NCCCNC(=O)Nc1ccc2ccccc2c1 = > 100 µM
• CCn1nc(C)cc1C(=O)Nc1nc2cc(C(N)=O)cc(OC)c2n1C/C=C/CNC(=O)c1ccccn1 = > 100 µM

State its EC50 on Stimulator of interferon genes protein (Homo sapiens, UniProt Q86WV6): CCn1nc(C)cc1C(=O)Nc1nc2cc(C(N)=O)cc(OC)c2n1Cc1cn(Cc2ccc3ccccc3c2)nn1
> 100 µM

State its EC50 on Stimulator of interferon genes protein (Homo sapiens, UniProt Q86WV6): CCn1nc(C)cc1C(=O)Nc1nc2cc(C(N)=O)cc(OCC3CC3)c2n1NCCCC(=O)NCc1ccc(F)cc1
> 100 µM

State its EC50 on Stimulator of interferon genes protein (Homo sapiens, UniProt Q86WV6): CCn1nc(C)cc1C(=O)Nc1nc2cc(C(N)=O)cc(OC)c2n1C/C=C/CNC(=O)Cc1cnccn1
> 100 µM

State its EC50 on Stimulator of interferon genes protein (Homo sapiens, UniProt Q86WV6): CCn1nc(C)cc1C(=O)Nc1nc2cc(C(N)=O)cc(OCC3COC3)c2n1NCCCC(=O)NCc1ccc(F)cc1
> 100 µM

State its EC50 on Stimulator of interferon genes protein (Homo sapiens, UniProt Q86WV6): CCn1nc(C)cc1C(=O)Nc1nc2cc(C(N)=O)cc(OC)c2n1C/C=C/CNC(=O)c1cnccn1
> 100 µM
